Biological target: Human DPP3 wild-type (WT) (Homo sapiens, UniProt Q9NY33)
Construct: made in house; host or cells: E. coli
Assay: Inhibition of DPP III catalyzed hydrolysis of Arg2-2NA, wild-type enzyme
Type: biochemical
Settings: WT hDPP III 1 nM; substrate Arg2-2NA 0.25–100 μM; 20 mM Tris-Cl pH 7.4, 25 °C, 2 min pre-incubation; fluorescence of 2NA; competitive inhibition; best fit ± standard error; inhibitor tynorphin 1–50 nM, valorphin 15–150 nM
Where no end group is shown, it is not given here.
measured_quantity: pKi
The scale used: pKi is minus the common logarithm of the concentration in molar units.

Request: pKi for VVYPWTQ [valorphin] ?
Result: 7.44

* * *

Biological target: Human DPP3 variant R669M (Homo sapiens, UniProt Q9NY33, R669M)
Construct: made in house; host or cells: E. coli
Assay: Inhibition of DPP III catalyzed hydrolysis of Arg2-2NA, R669M variant
Format: biochemical
measured_quantity: Ki (µM)
Your answer is read as µM, so omit the unit and give the number.

Request: Lab note: need Ki for `CC(C)C[C@H](NC(=O)[C@H](Cc1ccccc1)NC(=O)CNC(=O)CNC(=O)[C@@H](N)Cc1ccc(O)cc1)C(=O)O` on Human DPP3 variant R669M (Homo sapiens, UniProt Q9NY33, R669M), anyone have it?
Result: 58

* * *

Molecular target: Human DPP3 variant R669A (Homo sapiens, UniProt Q9NY33, R669A)
Sequence (Q9NY33 1-737 R669A): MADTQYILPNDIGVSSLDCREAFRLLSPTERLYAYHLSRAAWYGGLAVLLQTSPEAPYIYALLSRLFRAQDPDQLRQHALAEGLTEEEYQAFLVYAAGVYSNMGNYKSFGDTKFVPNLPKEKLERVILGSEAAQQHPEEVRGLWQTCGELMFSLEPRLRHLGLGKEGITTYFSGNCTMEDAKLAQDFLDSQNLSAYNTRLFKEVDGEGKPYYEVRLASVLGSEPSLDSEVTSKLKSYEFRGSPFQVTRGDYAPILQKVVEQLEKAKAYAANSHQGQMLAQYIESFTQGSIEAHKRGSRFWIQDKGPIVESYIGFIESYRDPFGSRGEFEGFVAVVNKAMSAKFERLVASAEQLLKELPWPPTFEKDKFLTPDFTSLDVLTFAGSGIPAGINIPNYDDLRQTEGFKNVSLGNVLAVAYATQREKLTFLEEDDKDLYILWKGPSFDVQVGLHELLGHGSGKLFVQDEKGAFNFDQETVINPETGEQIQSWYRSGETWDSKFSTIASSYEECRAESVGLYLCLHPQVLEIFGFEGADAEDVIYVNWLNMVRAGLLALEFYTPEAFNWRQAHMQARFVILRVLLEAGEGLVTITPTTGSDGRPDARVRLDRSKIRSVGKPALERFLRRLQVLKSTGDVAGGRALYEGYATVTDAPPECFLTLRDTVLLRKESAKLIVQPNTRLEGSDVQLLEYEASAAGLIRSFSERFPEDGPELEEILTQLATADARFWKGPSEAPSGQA
Experiment: Inhibition of DPP III catalyzed hydrolysis of Arg2-2NA, R669A variant
measured_quantity: Ki (µM)
Report the figure in µM without appending any unit label.

Request: Name the reported Ki value associated with the compound CC(C)C[C@H](NC(=O)[C@H](Cc1ccccc1)NC(=O)CNC(=O)CNC(=O)[C@@H](N)Cc1ccc(O)cc1)C(=O)O [Leu-enkephalin]
Result: 52
